Recorded values, source paper PMC8448983.

# target.desc: human A3 adenosine receptor (Homo sapiens, UniProt P0DMS8)
# Sequence (P0DMS8 1-318): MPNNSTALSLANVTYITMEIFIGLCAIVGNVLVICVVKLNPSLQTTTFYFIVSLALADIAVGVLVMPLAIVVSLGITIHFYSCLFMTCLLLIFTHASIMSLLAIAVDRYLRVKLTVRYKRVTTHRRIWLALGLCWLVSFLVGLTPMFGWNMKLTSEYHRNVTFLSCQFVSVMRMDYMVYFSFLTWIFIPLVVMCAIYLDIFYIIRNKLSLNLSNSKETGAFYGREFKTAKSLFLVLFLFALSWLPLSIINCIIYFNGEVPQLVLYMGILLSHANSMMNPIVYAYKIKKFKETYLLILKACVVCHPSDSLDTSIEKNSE
# method.description: Radioligand binding, HEK293 cells expressing human A3 receptor
# reported.conditions: compounds 33–52, NIH binding data
value.kind: activity class (active / inactive) in SAR and selectivity analysis

Nc1nc(CCc2ccccc2)nc2c1ncn2[C@@H]1O[C@H](CO)[C@@H](O)[C@H]1O = inactive
Nc1nc(C#Cc2ccccc2)nc2c1ncn2[C@@H]1O[C@H](CO)[C@@H](O)[C@@H]1O = active
Nc1nc(CCc2ccccc2)nc2c1ncn2[C@@H]1O[C@H](CO)[C@@H](O)[C@@H]1O = inactive
Nc1ncnc2c1nc(C#Cc1ccccc1)n2[C@H]1C[C@H](O)[C@@H](CO)O1 = active
